Parameter pKi: see the listing below.
biological target: human BRD4 first bromodomain (BDI_K57-E168) (Homo sapiens (Human)); assay: TR-FRET bromodomain binding assay, BRD4 first bromodomain
Formally, pKi is defined as -log10 of the concentration c, with c in mol/L.

INSERT INTO assay_data (molecule, test_readout, quantitative_readout) VALUES
  ('COc1ccccc1Oc1ccc(S(C)(=O)=O)cc1-c1cn(C)c(=O)c2[nH]ccc12 [Example 178]', 'pKi', 7.98);

Answer with reported pKi of Cn1cc(-c2cc(N3CCCS3(=O)=O)ccc2Oc2ccc(F)cc2F)c2cc[nH]c2c1=O [Example 43] 8.77

Answer with reported pKi of Cn1cc(-c2cc(S(C)(=O)=O)ccc2OC2CCCCC2)c2cc[nH]c2c1=O [Example 215] 9.08

Answer with reported pKi of COc1ccc(NC(=O)c2ccc(Oc3ccc(F)cc3F)c(-c3cn(C)c(=O)c4[nH]ccc34)c2)c(OC)n1 [Example 117] 5.64

Answer with reported pKi of CCS(=O)(=O)Nc1ccc(Oc2c(F)cc(F)cc2F)c(-c2cn(C)c(=O)c3[nH]ccc23)c1 [Example 62] 8.52

Answer with reported pKi of Cn1cc(-c2cc(S(C)(=O)=O)ccc2Oc2cc(F)cc(F)c2)c2cc[nH]c2c1=O [Example 176] 7.67

* * *

Parameter Ki: see the listing below.
target: human BRD4 first bromodomain (BDI_K57-E168) (Homo sapiens (Human), UniProt O60885); assay: TR-FRET bromodomain binding assay, BRD4 first bromodomain
Write down the numeric answer in nM and omit the unit.

Record excerpt, results attached:
INSERT INTO results (structure_string, test_readout, quantitative_readout) VALUES
  ('Cn1cc(-c2cc(C(N)=O)ccc2Oc2ccccc2)c2cc[nH]c2c1=O', 'Ki', 7.4),
  ('Cn1cc(-c2cc(S(N)(=O)=O)ccc2Oc2ccccc2)c2cc[nH]c2c1=O', 'Ki', 8.7);

Now take the following compound into account.
Answer with reported Ki of Cn1cc(-c2cc(S(C)(=O)=O)ccc2Oc2ccc(F)cc2F)c2cc(C(N)=O)[nH]c2c1=O 10.1

* * *

target: human BRD4 second bromodomain (BDII_E352-M457) (Homo sapiens (Human)); experiment: TR-FRET bromodomain binding assay, BRD4 second bromodomain
Parameter Ki: see the listing below.
Write down the numeric answer in nM and omit the unit.

Record excerpt, results attached:
INSERT INTO measurements (compound, unit_of_measure, quantitative_readout) VALUES
  ('Cn1cc(-c2cc(C(=O)NC3CCCC3)ccc2Oc2ccccc2)c2cc[nH]c2c1=O [Example 15]', 'nM', 7.5),
  ('Cn1cc(-c2cc(S(C)(=O)=O)ccc2Oc2ccc(F)cc2)c2cc[nH]c2c1=O [Example 151]', 'nM', 8.1);

Now take the following compound into account.
Answer with reported Ki of CCOC(=O)N1CCC(Oc2ccc(S(C)(=O)=O)cc2-c2cn(C)c(=O)c3[nH]ccc23)CC1 [Example 258] 12.4

* * *

molecular target: human BRD4 first bromodomain (BDI_K57-E168) (Homo sapiens (Human)); assay: TR-FRET bromodomain binding assay, BRD4 first bromodomain
Parameter Ki: see the listing below.
Write down the numeric answer in nM and omit the unit.

Record excerpt, results attached:
INSERT INTO assay_data (compound, quantitative_readout) VALUES
  ('Cn1cc(-c2cc(CS(C)(=O)=O)cnc2Oc2ccc(F)cc2F)c2cc[nH]c2c1=O [Example 311]', 14.8),
  ('Cn1cc(-c2cc(NS(=O)(=O)C3CC3)ccc2Oc2ccc(F)cc2F)c2cc[nH]c2c1=O [Example 235]', 17.4),
  ('CNS(=O)(=O)Nc1ccc(OC2CCC(F)(F)CC2)c(-c2cn(C)c(=O)c3[nH]ccc23)c1 [Example 104]', 4.4),
  ('Cn1cc(-c2cc(S(=O)(=O)C(F)(F)F)ccc2NCC2CC2)c2cc[nH]c2c1=O [Example 244]', 23.2);

Answer with reported Ki of CCS(=O)(=O)c1ccc(Oc2ccc(C#N)cc2)c(-c2cn(C)c(=O)c3[nH]ccc23)c1 [Example 304] 9

* * *

experiment: Rat liver microsome stability assay; assay type: in vitro ADME; conditions: rat liver microsomes (male Sprague-Dawley), 0.5 μM test compound, 0.25 mg/mL microsomal protein, pH 7.4, 37° C.; read-out: Stability in rat liver microsomes (t1/2 in minutes)
Parameter half-life at 0.5 μM: see the listing below.

Record excerpt, results attached:
INSERT INTO results (compound, result) VALUES
  ('Cn1cc(-c2cc(S(C)(=O)=O)ccc2OCCN2CCCC2=O)c2cc[nH]c2c1=O [Example 232]', '> 120 min'),
  ('CCS(=O)(=O)c1ccc(N2CCN(C)CC2)c(-c2cn(C)c(=O)c3[nH]ccc23)c1 [Example 331]', '> 120 min');

Now take the following compound into account.
Answer with reported half-life at 0.5 μM of Cn1cc(-c2cc(NS(C)(=O)=O)ccc2Oc2ccc(C#N)cc2)c2cc[nH]c2c1=O [Example 33] > 120 min

* * *

assay: Mouse liver microsome stability assay; type: in vitro ADME; details: male, CD1, mouse, microsomes, pH 7.4
Parameter half-life at 0.5 μM: see the listing below.
Write down the numeric answer in min and omit the unit.

Record excerpt, results attached:
INSERT INTO results (structure_string, unit_of_measure, quantitative_readout) VALUES
  ('Cn1cc(-c2cc(S(C)(=O)=O)ccc2Oc2ccc3ncccc3c2)c2cc[nH]c2c1=O', 'min', 11),
  ('CNS(=O)(=O)Nc1ccc(Oc2ccc(F)cc2F)c(-c2cn(C)c(=O)c3[nH]ccc23)c1', 'min', 11);

Now take the following compound into account.
Answer with reported half-life at 0.5 μM of Cn1cc(-c2cc(S(C)(=O)=O)ccc2Oc2ccc(F)c(F)c2)c2cc[nH]c2c1=O 14

* * *

Parameter pKi: see the listing below.
target: human BRD4 second bromodomain (BDII_E352-M457) (Homo sapiens (Human)); assay: TR-FRET bromodomain binding assay, BRD4 second bromodomain
Formally, pKi is defined as -log10 of the concentration c, with c in mol/L.

INSERT INTO measurements (structure_string, tested_on, quantitative_readout) VALUES
  ('CNS(=O)(=O)Nc1ccc(OC2CCC(F)(F)CC2)c(-c2cn(C)c(=O)c3[nH]ccc23)c1', 'human BRD4 second bromodomain (BDII_E352-M457) (Homo sapiens (Human))', 7.75),
  ('Cn1cc(-c2cc(S(C)(=O)=O)ccc2Oc2ccccc2CCO)c2cc[nH]c2c1=O', 'human BRD4 second bromodomain (BDII_E352-M457) (Homo sapiens (Human))', 7.77);

Now take the following compound into account.
For human BRD4 second bromodomain (BDII_E352-M457) (Homo sapiens (Human)), give the measured pKi of the entry CCS(=O)(=O)c1ccc(Oc2ccc(C#N)cc2)c(-c2cn(C)c(=O)c3[nH]ccc23)c1 7.66

* * *

Parameter half-life at 0.5 μM: see the listing below.
test: Mouse liver microsome stability assay; assay type: in vitro ADME; settings: male, CD1, mouse, microsomes, pH 7.4

INSERT INTO results (structure_string, test_readout, result) VALUES
  ('CCS(=O)(=O)c1ccc(N2CCN(C)CC2)c(-c2cn(C)c(=O)c3[nH]ccc23)c1', 'half-life at 0.5 μM', '> 2 h');

Answer with reported half-life at 0.5 μM of Cn1cc(-c2cc(S(C)(=O)=O)ccc2OCC2CC2)c2cc[nH]c2c1=O > 2 h

Answer with reported half-life at 0.5 μM of CCS(=O)(=O)c1ccc(NC2CC2)c(-c2cn(C)c(=O)c3[nH]ccc23)c1 > 2 h
